Data provenance is paper PMC10723784.

This section presents compounds with their documented IC50 at 24 h values.
method-description: MTT cytotoxicity assay, non-cancer ARPE19 cells
run-conditions: human, ARPE19 non-cancer retinal pigment cells
Give the quantity in µM, number only.

>  <compound>
CCCCCc1cc(O)c(C/C=C(\C)CCC=C(C)C)c(O)c1 [CBG, cannabigerol]

>  <readout-units>
µM

>  <measured-result>
32.1

$$$$

Note: attention shifts to another entry.
Look up and state reported IC50 at 24 h for C=C(C)[C@@H]1CCC(C)=C[C@H]1c1c(O)cc(CCCCC)cc1O [CBD, cannabidiol] 25.3

----------
method-description: MTT cytotoxicity assay, non-cancer PNT2 cells
run-conditions: human, PNT2 normal prostate epithelial cells
measure-name: IC50 at 96 h (µM)
Give the quantity in µM, number only.

>  <structure-as-smiles>
CCCCCc1cc(O)c(C/C=C(\C)CCC=C(C)C)c(O)c1

>  <IC50 at 96 h (µM)>
18.3

$$$$

Note: attention shifts to another entry.
Look up and state reported IC50 at 96 h for C=C(C)[C@@H]1CCC(C)=C[C@H]1c1c(O)cc(CCCCC)cc1O 14.4
